Biological target: recombinant human ULK1 protein (1-649) (Homo sapiens, UniProt O75385)
Construct: recombinant human ULK1 protein (1-649, SignalChem #U01-11G); purchased SignalChem U01-11G
Sequence (O75385 1-649): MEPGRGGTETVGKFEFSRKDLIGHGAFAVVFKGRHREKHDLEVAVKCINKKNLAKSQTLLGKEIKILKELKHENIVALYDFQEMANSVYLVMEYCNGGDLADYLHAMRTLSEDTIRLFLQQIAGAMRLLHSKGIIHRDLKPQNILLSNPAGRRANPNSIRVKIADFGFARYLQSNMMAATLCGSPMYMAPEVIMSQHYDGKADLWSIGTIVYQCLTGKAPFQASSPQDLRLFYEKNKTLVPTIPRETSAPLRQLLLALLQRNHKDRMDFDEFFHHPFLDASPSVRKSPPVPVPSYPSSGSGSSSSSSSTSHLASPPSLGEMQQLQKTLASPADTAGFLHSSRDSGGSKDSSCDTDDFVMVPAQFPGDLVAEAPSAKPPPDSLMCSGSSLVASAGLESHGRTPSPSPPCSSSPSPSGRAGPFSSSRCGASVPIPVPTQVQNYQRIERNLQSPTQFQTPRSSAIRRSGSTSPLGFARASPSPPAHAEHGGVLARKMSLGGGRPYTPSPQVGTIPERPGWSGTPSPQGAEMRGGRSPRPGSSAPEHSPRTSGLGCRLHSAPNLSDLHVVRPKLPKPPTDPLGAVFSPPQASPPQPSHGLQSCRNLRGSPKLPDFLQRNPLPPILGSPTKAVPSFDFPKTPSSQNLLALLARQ
Assay: ULK1 inhibition assay (ADP Glo)
Format: biochemical
Settings: Table 3
Method: Illustrative compounds of Formula I and related analogs are shown in Table 1 (along with their respective IC50 values for ULK1 inhibition assays). […] ULK 1 inhibition was assessed after one hour. […] According to another embodiment, the present disclosure provides methods of producing the above-defined compounds. […] Advantageously, these compounds are conveniently synthesized from readily available starting materials. […]
RECORDED METRIC: IC50

What measured IC50 is associated with CNC(=O)c1cccc(Nc2nc(Nc3cc(OC)c(OC)c(OC)c3)ncc2Br)c1 [Compound E26] on recombinant human ULK1 protein (1-649) (Homo sapiens, UniProt O75385)?
> 100 nM

Follow-up entry: COc1cccc(Nc2ncc(Br)c(Nc3ccccc3CO)n2)c1 [Compound C6]
< 5 nM

Follow-up entry: COc1cc(Nc2ncc(Br)c(Nc3ccccc3CNCC(N)=O)n2)cc(OC)c1OC [Compound C25]
5 to 100 nM

Follow-up entry: O=C(Nc1ccc(Nc2ncc(Br)c(Nc3ccccc3CO)n2)cc1)C1CC1 [Compound C12]
< 5 nM

Follow-up entry: COc1cc(Nc2ncc(Br)c(Nc3ccccc3COCC(=O)N(C)C)n2)cc(OC)c1OC [Compound C19]
> 100 nM

Others:
What measured IC50 is associated with COc1cc(Nc2ncc(Br)c(Oc3ccc(NC(=O)CC(=O)Nc4ccc(F)cc4)cc3F)n2)cc(OC)c1OC [Compound C29] on recombinant human ULK1 protein (1-649) (Homo sapiens, UniProt O75385)?
> 100 nM

Follow-up entry: COc1cc(Nc2ncc(Br)c(Nc3ccccc3CNC3CC3)n2)cc(OC)c1OC [Compound C24]
> 100 nM

Follow-up entry: O=C(NCc1ccc(Nc2ncc(C(F)(F)F)c(NC3CC3)n2)cc1)OCc1ccccc1 [Compound D2]
< 5 nM

Data origin: patent US20230135635A1
